Read-out: Collagen I, COL1A1 (gene 1277)
method_summary: BSK_MyoF_CollagenI: BioMAP Diversity Plus: MyoF Assay for Collagen I Biomarker Activity (AID 2284238)
condition_details: primary human lung fibroblasts
The source made the active and inactive calls. The calls were made as follows: active = hit-call score of the fitted dose curve at least 0.9, where 1 is the maximum; inactive = score below 0.9.
I would appreciate it if you answered using one of these outcomes: TRUE = active, FALSE = inactive

molecule="CCOP(=S)(NC(C)C)Oc1ccccc1C(=O)OC(C)C (stereo not drawn)" label=FALSE

Answer briefly: the call reported for "CCOP(=S)(OCC)SCSc1ccc(Cl)cc1" in this assay.
FALSE

Note, next up: "N#Cc1cc([N+](=O)[O-])ccc1N"
FALSE

Note, next up: "CCOP(=S)(OCC)SCS(=O)(=O)CC"
FALSE

Note, next up: "NC(=O)C(F)(F)C(F)(F)F"
FALSE

Note, next up: "Nc1ccc([N+](=O)[O-])cc1Cl"
FALSE

----------
Read-out: Vascular cell adhesion molecule 1 (VCAM1), VCAM1 (gene 7412)
method_summary: BSK_hDFCGF_VCAM1: BioMAP Diversity Plus: hDFCGF Assay for Vascular cell adhesion molecule 1 (VCAM1) Biomarker Activity (AID 2283065)
condition_details: primary human foreskin fibroblasts; actives raise or lower the signal
The source made the active and inactive calls. The calls were made as follows: active = hit-call score of the fitted dose curve at least 0.9, where 1 is the maximum; inactive = score below 0.9.
I would appreciate it if you answered using one of these outcomes: Y for active, N for inactive

molecule=OCC(F)(F)OC(F)(F)C(F)(F)OC(F)(F)CO label=N
molecule="CC(Cc1ccc(OCC(=O)O)cc1)NCC(O)c1csc(C(F)(F)F)n1 (centres undefined)" label=N

Answer briefly: the call reported for "O=C(O)C(F)(F)OC(F)(F)C(F)(F)OC(F)(F)C(=O)O" in this assay.
N

Note, next up: "CSC(C)(C)C=NO"
N

Note, next up: "c1ccc2c(c1)sc1ccccc12"
N

----------
measured_target: Bile acid receptor (Homo sapiens)
method_summary: OT_FXR_FXRSRC1_1440: Odyssey Thera (OT) 24-hour HEK293T Protein-Complementation Assay for Farnesoid X receptor/SRC-1 Co-activator (AID 2283384)
Results filed as inconclusive are left out. Active and inactive are the calls of the source. How the source made its calls: active means hit-call score of the fitted dose curve at least 0.9, where 1 is the maximum; inconclusive means response in the unintended direction; inactive means score below 0.9.
I would appreciate it if you answered using one of these outcomes: active, inactive

compound="O=C(O)C1C(C(=O)O)C2(Cl)C(Cl)=C(Cl)C1(Cl)C2(Cl)Cl (stereo unspecified)" label=inactive
compound=CCNc1nc(Cl)nc(NC(C)(C)C)n1 label=inactive
compound="O=P(OCC(Br)CBr)(OCC(Br)CBr)OCC(Br)CBr (stereo unspecified)" label=active

Answer briefly: the call reported for CCCCC(CC)COC(=O)c1c(Br)c(Br)c(Br)c(Br)c1C(=O)OCC(CC)CCCC (stereo unspecified) in this assay.
inactive

Note, next up: "CCCCc1ccc(O)cc1"
active

Note, next up: "Cc1ccc([N+](=O)[O-])cc1C"
inactive

Note, next up: OCC1CO1 (stereo unspecified)
inactive

Note, next up: "CCC(C)(C)c1ccc(O)cc1"
inactive

Note, next up: "CCCCN(CC)C(=O)SCCC"
inactive

Note, next up: "O=[N+]([O-])c1ccc(Cl)c(Cl)c1"
inactive

Note, next up: "O=P(Oc1ccccc1)(Oc1ccccc1)Oc1ccccc1"
inactive

Note, next up: "CCOP(=S)(OCC)SCSCC"
inactive

----------
Read-out: Glutathione S-Transferase (GSTA2), GSTA2 (gene 2939)
method_summary: LTEA_HepaRG_GSTA2: Life Technologies and Expression Analysis (LTEA) Assay for Glutathione S-Transferase (GSTA2) using HepaRG (AID 2283497)
condition_details: mRNA level, 48 h; actives raise or lower the signal
Activity calls are given as the source filed them. How the source made its calls: active means hit-call score of the fitted dose curve at least 0.9, where 1 is the maximum; inactive means score below 0.9.
I would appreciate it if you answered using one of these outcomes: Yes = active, No = inactive

Examples with answers:
molecule=[N-]=[N+]=[N-] label=Yes
molecule=CSC(C)(C)C=NO label=No
molecule=Nc1ccc2ccccc2c1 label=No

Answer briefly: the call reported for CC(Cc1ccc(OCC(=O)O)cc1)NCC(O)c1csc(C(F)(F)F)n1 (configuration not stated) in this assay.
No

Note, next up: OCC1CO1 (configuration not stated)
No

Note, next up: "Cc1ccc(O)cc1C"
No

Note, next up: CCOP(=S)(Oc1ccc([N+](=O)[O-])cc1)c1ccccc1 (configuration not stated)
No

Note, next up: "Cc1cccc(N)c1"
No

Note, next up: CCC1(c2ccccc2)C(=O)N=C(O)NC1=O (configuration not stated)
No

Note, next up: "COCCOCCO"
No

Note, next up: "CCCN(CCC)c1c([N+](=O)[O-])cc(C(C)C)cc1[N+](=O)[O-]"
No

Note, next up: "CCNc1nc(Cl)nc(NC(C)(C)C)n1"
No

Note, next up: "CC(Cl)(Cl)C(=O)O"
No
